Reported clearance values follow for various compounds
- Tested on: Rattus norvegicus
- Test description: Plasma clearance in rat at 2 mg/kg, iv
- Type: ADME, organism-based
- Parameters: dose 2 mg/kg, route intravenous
- Condition info: in vivo

Smiles string	Tested system	clearance / mL/min/kg
CC(C)S(=O)(=O)N(C)c1cc(C(=O)N[C@@H](Cc2ccccc2)[C@@H](N)CF)cc(NC[C@H]2C[C@@H]2C)n1	Rattus norvegicus	45.8
CC(C)S(=O)(=O)N(C)c1cc(C(=O)N[C@@H](Cc2ccccc2)[C@@H](N)CF)cc(N(C)C[C@H]2C[C@@H]2C)n1	Rattus norvegicus	59.1

---

Reported Vd values follow for various compounds
- Test description: Volume of distribution in rat at 2 mg/kg, iv
- Format: ADME, organism-based
- Design: dose 2 mg/kg, route intravenous
- Condition info: in vivo, read-out: Vdss

Smiles string	Vd [L/kg]
CC(C)S(=O)(=O)N(C)c1cc(C(=O)N[C@@H](Cc2ccccc2)[C@@H](N)CF)cc(N(C)C[C@H]2C[C@@H]2C)n1	4.2
CC(C)S(=O)(=O)N(C)c1cc(C(=O)N[C@@H](Cc2ccccc2)[C@@H](N)CF)cc(NC[C@H]2C[C@@H]2C)n1	3.9
